Where do these numbers come from? They come from paper PMC12382614.

- System: MeWo
- test_description: Photocytotoxicity, MTT assay
- Type: cell-based, human
- reported_conditions: Homo sapiens, MeWo, light or radiation study; 6 h incubation, red light 643 nm 30 min, 3.6 J/cm^2, 100 μM CoCl2 at least 2 h before porphyrin; read-out: IC50 MeWo CoCl2
Measured IC50 by item
measured_quantity: IC50 (nM)

chemical_smiles=CCCCCCCCCCCCCC(=O)Nc1ccc(-c2c3nc(c(-c4ccc[n+]([O-])c4)c4ccc([nH]4)c(-c4ccc[n+]([O-])c4)c4nc(c(-c5ccc[n+]([O-])c5)c5ccc2[nH]5)C=C4)C=C3)cc1 assayed_target=MeWo measured_quantity=IC50 qualifier_operator== observed=1790
chemical_smiles=CCCCCCCCCCCCCCCCCC(=O)Nc1ccc(-c2c3nc(c(-c4ccc[n+]([O-])c4)c4ccc([nH]4)c(-c4ccc[n+]([O-])c4)c4nc(c(-c5ccc[n+]([O-])c5)c5ccc2[nH]5)C=C4)C=C3)cc1 assayed_target=MeWo measured_quantity=IC50 qualifier_operator== observed=680
chemical_smiles=CCCCCCCCCC(=O)Nc1ccc(-c2c3nc(c(-c4ccc[n+]([O-])c4)c4ccc([nH]4)c(-c4ccc[n+]([O-])c4)c4nc(c(-c5ccc[n+]([O-])c5)c5ccc2[nH]5)C=C4)C=C3)cc1 assayed_target=MeWo measured_quantity=IC50 qualifier_operator== observed=6280
chemical_smiles=CC(=O)Nc1ccc(-c2c3nc(c(-c4ccc[n+]([O-])c4)c4ccc([nH]4)c(-c4ccc[n+]([O-])c4)c4nc(c(-c5ccc[n+]([O-])c5)c5ccc2[nH]5)C=C4)C=C3)cc1 assayed_target=MeWo measured_quantity=IC50 qualifier_operator=> observed=100000

---

SI (IC50 (HDF) / IC50 (melanoma cells)) MeWo No CoCl2 values by entry
- System: MeWo
- test_description: Photocytotoxicity, MTT assay
- Type: cell-based, human
- reported_conditions: red light 643 nm 30 min, normoxia
measured_quantity: SI (IC50 (HDF) / IC50 (melanoma cells)) MeWo No CoCl2

chemical_smiles=CCCCCCCCCCCCCC(=O)Nc1ccc(-c2c3nc(c(-c4ccc[n+](C)c4)c4ccc([nH]4)c(-c4ccc[n+](C)c4)c4nc(c(-c5ccc[n+](C)c5)c5ccc2[nH]5)C=C4)C=C3)cc1 observed=1.9
chemical_smiles=CCCCCCCCCC(=O)Nc1ccc(-c2c3nc(c(-c4ccc[n+](C)c4)c4ccc([nH]4)c(-c4ccc[n+](C)c4)c4nc(c(-c5ccc[n+](C)c5)c5ccc2[nH]5)C=C4)C=C3)cc1 observed=2.0
chemical_smiles=CCCCCCCCCC(=O)Nc1ccc(-c2c3nc(c(-c4ccc[n+]([O-])c4)c4ccc([nH]4)c(-c4ccc[n+]([O-])c4)c4nc(c(-c5ccc[n+]([O-])c5)c5ccc2[nH]5)C=C4)C=C3)cc1 observed=0.6
chemical_smiles=CCCCCCCCCCCCCCCCCC(=O)Nc1ccc(-c2c3nc(c(-c4ccc[n+](C)c4)c4ccc([nH]4)c(-c4ccc[n+](C)c4)c4nc(c(-c5ccc[n+](C)c5)c5ccc2[nH]5)C=C4)C=C3)cc1.[Cl-].[Cl-].[Cl-] observed=1.0
chemical_smiles=CCCCCCCCCCCCCC(=O)Nc1ccc(-c2c3nc(c(-c4ccc[n+]([O-])c4)c4ccc([nH]4)c(-c4ccc[n+]([O-])c4)c4nc(c(-c5ccc[n+]([O-])c5)c5ccc2[nH]5)C=C4)C=C3)cc1 observed=0.8
chemical_smiles=CCCCCCCCCCCCCCCCCC(=O)Nc1ccc(-c2c3nc(c(-c4ccc[n+]([O-])c4)c4ccc([nH]4)c(-c4ccc[n+]([O-])c4)c4nc(c(-c5ccc[n+]([O-])c5)c5ccc2[nH]5)C=C4)C=C3)cc1 observed=2.0

---

Listing of recorded pIC50 by entry.
- Test system: HDF
- test_description: Photocytotoxicity, MTT assay
- Assay type: cell-based, human
- reported_conditions: Homo sapiens, HDF, light or radiation study; 6 h incubation, red light 643 nm 30 min, 3.6 J/cm^2, 100 μM CoCl2 at least 2 h before porphyrin; read-out: IC50 HDF CoCl2
pIC50: −log10 of the molar value.
measured_quantity: pIC50

chemical_smiles=CCCCCCCCCCCCCCCCCC(=O)Nc1ccc(-c2c3nc(c(-c4ccc[n+]([O-])c4)c4ccc([nH]4)c(-c4ccc[n+]([O-])c4)c4nc(c(-c5ccc[n+]([O-])c5)c5ccc2[nH]5)C=C4)C=C3)cc1 measured_quantity=pIC50 qualifier_operator== observed=5.96
chemical_smiles=CCCCCCCCCC(=O)Nc1ccc(-c2c3nc(c(-c4ccc[n+]([O-])c4)c4ccc([nH]4)c(-c4ccc[n+]([O-])c4)c4nc(c(-c5ccc[n+]([O-])c5)c5ccc2[nH]5)C=C4)C=C3)cc1 measured_quantity=pIC50 qualifier_operator== observed=5.12
chemical_smiles=CCCCCCCCCCCCCC(=O)Nc1ccc(-c2c3nc(c(-c4ccc[n+]([O-])c4)c4ccc([nH]4)c(-c4ccc[n+]([O-])c4)c4nc(c(-c5ccc[n+]([O-])c5)c5ccc2[nH]5)C=C4)C=C3)cc1 measured_quantity=pIC50 qualifier_operator== observed=5.58
chemical_smiles=CC(=O)Nc1ccc(-c2c3nc(c(-c4ccc[n+]([O-])c4)c4ccc([nH]4)c(-c4ccc[n+]([O-])c4)c4nc(c(-c5ccc[n+]([O-])c5)c5ccc2[nH]5)C=C4)C=C3)cc1 measured_quantity=pIC50 qualifier_operator=< observed=4.00
